From: patent US11319322B2

# GI50 per entry
- SYSTEM: KIF5B-RET-BaF3 (Homo sapiens, UniProt P07949)
- Construct: fused on or other part: P33176 (Kinesin-1 heavy chain)
- Sequence (P07949 whole entry, change not shown, the tested form may be a part): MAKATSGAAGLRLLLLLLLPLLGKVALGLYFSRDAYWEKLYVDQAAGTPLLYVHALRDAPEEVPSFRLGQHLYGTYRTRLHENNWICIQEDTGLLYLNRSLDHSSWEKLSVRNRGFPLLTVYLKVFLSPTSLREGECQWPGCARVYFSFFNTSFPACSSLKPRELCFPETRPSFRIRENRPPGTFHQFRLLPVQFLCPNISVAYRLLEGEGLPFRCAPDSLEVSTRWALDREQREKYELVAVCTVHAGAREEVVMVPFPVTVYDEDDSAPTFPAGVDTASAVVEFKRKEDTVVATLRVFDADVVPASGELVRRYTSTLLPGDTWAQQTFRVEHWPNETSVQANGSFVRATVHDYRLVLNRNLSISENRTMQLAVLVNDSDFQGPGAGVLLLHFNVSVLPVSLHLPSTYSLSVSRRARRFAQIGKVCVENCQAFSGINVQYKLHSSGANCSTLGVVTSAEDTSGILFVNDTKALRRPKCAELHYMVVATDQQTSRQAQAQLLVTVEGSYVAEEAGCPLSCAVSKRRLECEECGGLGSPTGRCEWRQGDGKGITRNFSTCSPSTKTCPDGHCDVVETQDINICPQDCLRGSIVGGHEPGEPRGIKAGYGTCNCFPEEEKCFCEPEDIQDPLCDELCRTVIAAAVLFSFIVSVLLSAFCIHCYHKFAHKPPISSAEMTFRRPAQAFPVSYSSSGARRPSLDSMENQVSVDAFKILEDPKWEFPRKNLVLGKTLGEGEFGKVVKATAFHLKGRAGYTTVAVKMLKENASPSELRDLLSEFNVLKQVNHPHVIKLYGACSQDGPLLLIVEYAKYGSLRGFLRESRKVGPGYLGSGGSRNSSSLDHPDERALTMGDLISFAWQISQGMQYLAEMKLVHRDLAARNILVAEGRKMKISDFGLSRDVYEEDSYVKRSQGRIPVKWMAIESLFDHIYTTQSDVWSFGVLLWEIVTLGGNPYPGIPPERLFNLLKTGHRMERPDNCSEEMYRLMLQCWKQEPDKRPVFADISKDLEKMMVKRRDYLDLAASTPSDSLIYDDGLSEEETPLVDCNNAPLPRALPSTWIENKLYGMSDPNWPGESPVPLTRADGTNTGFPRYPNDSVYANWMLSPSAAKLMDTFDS
- ASSAY COMMENT: Growth inhibition of KIF5B-RET-BaF3 cells stably transfected with kinase (MTS)
- Format: cell-based
- TEST CONDITIONS: 48 h, read-out: KIF5B-RET (IC50/nM)
QUANTITY NAME: GI50 (nM)

>>> reported_value("Cc1ccc(Oc2nc(-c3cccc(Cl)c3)nc3c2ncn3C)cc1C(=O)Nc1ccc(CN2CCN(C)CC2)c(C(F)(F)F)c1")
1510
>>> reported_value("Cc1ccc(Oc2nc(-c3cccnc3)nc3[nH]ncc23)cc1NC(=O)c1ccc(CN2CCN(C)CC2)c(C(F)(F)F)c1")
3890
>>> reported_value("CN1CCN(Cc2ccc(NC(=O)c3cccc(Oc4nc(-c5ccncc5)nc5cc[nH]c45)c3)cc2C(F)(F)F)CC1")
5.71
>>> reported_value("Cc1ccc(Oc2nc(-c3ccsc3)nc3c2cnn3C)cc1NC(=O)c1ccc(CN2CCN(C)CC2)c(C(F)(F)F)c1")
2360

----------
# log10(GI50) per entry
- SYSTEM: KIF5B-RET-BaF3 (Homo sapiens, UniProt P07949)
- Construct: fused on or other part: P33176 (Kinesin-1 heavy chain)
- ASSAY COMMENT: Growth inhibition of KIF5B-RET-BaF3 cells stably transfected with kinase (MTS)
- Format: cell-based
- TEST CONDITIONS: 48 h, read-out: KIF5B-RET (IC50/nM)
QUANTITY NAME: log10(GI50) (log10 of the value in nM)

>>> reported_value("CN1CCN(Cc2ccc(NC(=O)c3cccc(Oc4nc(-c5cccnc5)nc5ccsc45)c3)cc2C(F)(F)F)CC1")
3.51
>>> reported_value("Cc1ccc(Oc2nc(-c3ccncc3)nc3ccsc23)cc1NC(=O)c1ccc(CN2CCN(C)CC2)c(C(F)(F)F)c1")
1.23
>>> reported_value("CCC(=O)NC1CCN(c2ccc(NC(=O)c3ccc(C)c(Oc4nc(-c5cccnc5)nc5c4cnn5C)c3)cc2C(F)(F)F)CC1")
2.07
>>> reported_value("Cc1ccc(Oc2nc(-c3cccnc3)nc3ccsc23)cc1NC(=O)c1ccc(CN2CCN(C)CC2)c(C(F)(F)F)c1")
3.60
>>> reported_value("Cc1ccc(NC(=O)c2ccc(CN3CCN(C)CC3)c(C(F)(F)F)c2)cc1Oc1nc(-c2ccncc2)nc2c1cnn2C")
2.67
>>> reported_value("Cc1ccc(Oc2nc(-c3ccncc3)nc3c2ncn3C)cc1NC(=O)c1ccc(CN2CCN(C)CC2)c(C(F)(F)F)c1")
0.44
>>> reported_value("Cc1ccc(C(=O)Nc2ccc(CN3CCN(C)CC3)c(C(F)(F)F)c2)cc1Oc1nc(-c2ccc(O)cc2)nc2ccn(C)c12")
3.65

----------
# GI50 per entry
- SYSTEM: KIF5B-RET-BaF3 (Homo sapiens)
- Construct: fused on or other part: P33176 (Kinesin-1 heavy chain)
- ASSAY COMMENT: Growth inhibition of KIF5B-RET-BaF3 cells stably transfected with kinase (MTS)
- Assay type: cell-based
- TEST CONDITIONS: 48 h, read-out: KIF5B-RET (IC50/nM)
QUANTITY NAME: GI50 (nM)

>>> reported_value("CN1CCN(Cc2cc(NC(=O)c3cccc(Oc4nc(-c5ccncc5)nc5ccn(C)c45)c3)cc(C(F)(F)F)c2)CC1 [III-p-4]")
3650
>>> reported_value("CN1CCN(Cc2cc(NC(=O)c3cccc(Oc4nc(-c5cccnc5)nc5c4cnn5C)c3)cc(C(F)(F)F)c2)CC1 [II-p-1]")
251
>>> reported_value("CC(=O)NCC1CCN(c2ccc(NC(=O)c3ccc(C)c(Oc4nc(-c5cccnc5)nc5c4cnn5C)c3)cc2C(F)(F)F)CC1 [II-v-10]")
463
>>> reported_value("CN1CCN(Cc2ccc(C(=O)Nc3cc(Oc4nc(-c5ccc(O)cc5)nc5ccn(C)c45)ccc3Cl)cc2C(F)(F)F)CC1 [III-k-10]")
2440
>>> reported_value("CN1CCN(Cc2ccc(C(=O)Nc3cc(Oc4nc(-c5cccnc5)nc5ccn(C)c45)ccc3Cl)cc2C(F)(F)F)CC1 [III-k-3]")
1190
>>> reported_value("Cc1ccc(Oc2nc(-c3ccoc3)nc3ccn(C)c23)cc1NC(=O)c1ccc(CN2CCN(C)CC2)c(C(F)(F)F)c1 [III-j-10]")
428
>>> reported_value("Cc1ccc(Oc2nc(-c3cccc(O)c3)nc3c2ncn3C)cc1C(=O)Nc1ccc(CN2CCN(C)CC2)c(C(F)(F)F)c1 [I-n-7]")
1450
>>> reported_value("CCS(=O)(=O)NC1CCN(c2ccc(NC(=O)c3ccc(C)c(Oc4nc(-c5ccncc5)nc5c4cnn5C)c3)cc2C(F)(F)F)CC1 [II-v-15]")
135
>>> reported_value("Cc1ccc(Oc2nc(-c3cccc(N)c3)nc3c2ncn3C)cc1C(=O)Nc1ccc(CN2CCN(C)CC2)c(C(F)(F)F)c1 [I-n-9]")
1480
>>> reported_value("CN1CCN(Cc2ccc(NC(=O)c3cc(Oc4nc(-c5ccoc5)nc5nn(C)cc45)ccc3Cl)cc2C(F)(F)F)CC1 [IV-o-10]")
3760
>>> reported_value("Cc1ccc(Oc2nc(-c3ccncc3)nc3c2ncn3C)cc1C(=O)Nc1cccc(C(F)(F)F)c1 [I-f-2]")
8120
>>> reported_value("CN1CCN(Cc2ccc(C(=O)Nc3cccc(Oc4nc(-c5cccnc5)nc5c4cnn5C)c3)cc2C(F)(F)F)CC1 [II-h-1]")
953
>>> reported_value("Cc1ccc(Oc2nc(-c3ccc(Cl)cc3)nc3c2ncn3C)cc1C(=O)Nc1ccc(CN2CCN(C)CC2)c(C(F)(F)F)c1 [I-n-6]")
1380
>>> reported_value("CN1CCN(Cc2ccc(NC(=O)c3cccc(Oc4cc(-c5ccncc5)nc5sccc45)c3)cc2C(F)(F)F)CC1 [VII-l-2]")
315
>>> reported_value("Cc1ccc(Oc2nc(-c3cccc(N)c3)nc3nn(C)cc23)cc1C(=O)Nc1ccc(CN2CCN(C)CC2)c(C(F)(F)F)c1 [IV-n-8]")
1620
>>> reported_value("Cc1ccc(C(=O)Nc2cc(C(F)(F)F)cc(C(F)(F)F)c2)cc1Oc1nc(-c2cccnc2)nc2c1cnn2C [II-v-1]")
7940
>>> reported_value("Cc1ccc(-c2nc(Oc3cc(C(=O)Nc4ccc(CN5CCN(C)CC5)c(C(F)(F)F)c4)ccc3C)c3cnn(C)c3n2)cc1 [II-m-4]")
152
>>> reported_value("Cn1cnc2c(Oc3cccc(C(=O)Nc4cccc(C(F)(F)F)c4)c3)nc(-c3ccncc3)nc21 [I-d-2]")
5710
>>> reported_value("Cc1ccc(C(=O)Nc2cc(CN3CCN(C)CC3)cc(C(F)(F)F)c2)cc1Oc1nc(-c2cccnc2)nc2c1cnn2C [II-s-1]")
482
>>> reported_value("CN1CCN(Cc2ccc(NC(=O)c3cccc(Oc4cc(-c5cccnc5)nc5[nH]ccc45)c3)cc2C(F)(F)F)CC1 [V-I-1]")
1460
>>> reported_value("Cc1ccc(Oc2cc(-c3ccncc3)nc3[nH]ccc23)cc1C(=O)Nc1cc(CN2CCN(C)CC2)cc(C(F)(F)F)c1 [V-r-1]")
2810
>>> reported_value("Cc1ccc(NC(=O)c2ccc(CN3CCN(C)CC3)c(C(F)(F)F)c2)cc1Oc1nc(-c2ccncc2)nc2cc[nH]c12 [III-i-2]")
774
>>> reported_value("Cc1ccc(Oc2nc(-c3ccccc3)nc3ccn(C)c23)cc1NC(=O)c1ccc(CN2CCN(C)CC2)c(C(F)(F)F)c1 [III-j-7]")
1370
>>> reported_value("Cc1ccc(Oc2nc(-c3cccnc3)nc3c2cnn3C)cc1NC(=O)c1ccc(CN2CCN(C)CC2)c(C(F)(F)F)c1 [II-j-1]")
4420
>>> reported_value("Cc1ccc(Oc2nc(-c3ccc(O)cc3)nc3c2ncn3C)cc1NC(=O)c1ccc(CN2CCN(C)CC2)c(C(F)(F)F)c1 [I-j-4]")
1610
>>> reported_value("CN1CCN(Cc2ccc(NC(=O)c3cc(Oc4nc(-c5ccc(N)cc5)nc5c4ncn5C)ccc3Cl)cc2C(F)(F)F)CC1 [I-o-9]")
1500
>>> reported_value("Cc1ccc(Oc2nc(-c3ccncc3)nc3nn(C)cc23)cc1NC(=O)c1cccc(C(F)(F)F)c1 [IV-c-2]")
2840
>>> reported_value("Cc1ccc(Oc2nc(-c3ccncc3)nc3c2cnn3C)cc1C(=O)Nc1ccc(CN2CCN(C)CC2)c(C(F)(F)F)c1 [II-n-2]")
440
